System: HT29 colon
procedure.text: NCI-60 one-dose screen, 48 h
experimental.parameters: 10 µM unless noted
This is part of a sample that, as a whole, favours compounds with a hit. Of some 83,000 tested, about 20% had one in any assay. Calls of active or inactive are those of the source. How the source made its calls: active means growth percent below 10; inactive means the rest.
Outcomes: 1.0 (active), 0.0 (inactive)

[
  {
    "chem.smiles": "Cc1csc(/N=C(N)/N=C(\\N)c2cccs2)n1",
    "assigned.class": 0.0
  },
  {
    "chem.smiles": "O=C(CSc1nnc(-c2cccs2)n1-c1ccccc1)Nc1ccccc1F",
    "assigned.class": 0.0
  },
  {
    "chem.smiles": "O=C(CSc1nc2ccccc2c(=O)n1-c1ccccc1)N/N=C/c1ccc(Oc2ccc(Br)cc2)cc1",
    "assigned.class": 0.0
  },
  {
    "chem.smiles": "CN1CCN(c2ccc(Nc3nc(NCCCNS(=O)(=O)c4ccc(C(F)(F)F)cc4)c4sccc4n3)cc2)CC1",
    "assigned.class": 1.0
  },
  {
    "chem.smiles": "CCCCc1nc2c(N)nc3ccccc3c2n1Cc1ccc(OC)cc1",
    "assigned.class": 0.0
  },
  {
    "chem.smiles": "Cc1cc(=O)oc2cc(OCCCOc3ccc(/C=C/C(=O)Nc4ccc(Br)cc4)cc3)ccc12",
    "assigned.class": 0.0
  },
  {
    "chem.smiles": "O=S(=O)(NCCCNc1nccc(-c2[nH]c(-c3ccccc3)nc2-c2ccc(F)c(O)c2)n1)c1cccc2ccccc12",
    "assigned.class": 0.0
  },
  {
    "chem.smiles": "CS(=O)(=O)c1nccc(-c2c(-c3cccc(OCc4ccc(Cl)c(C(F)(F)F)c4)c3)nc3sccn23)n1",
    "assigned.class": 0.0
  },
  {
    "chem.smiles": "CC1(C)CC[C@]2(C(=O)NCCCCCCN(CCCN)CCCN)CC[C@]3(C)C(=CC[C@@H]4[C@@]5(C)CC[C@H](O)C(C)(C)[C@@H]5CC[C@]43C)[C@@H]2C1",
    "assigned.class": 0.0
  }
]
